The values you see were collected from BindingDB's records for doi:10.1016/j.bmc.2020.115710.

Each item that follows carries a reported pIC50.
# measurement target: Co-chaperonin GroES (Escherichia coli, UniProt Q7BGE6)
# procedure details: Inhibition of Escherichia coli GroEL/ES assessed as inhibition of native malate dehydrogenase treated after denatured malate dehydrogenase completely refold in presence of NfsB nitroreductase
pIC50: −log10 of the molar value.
assay endpoint: pIC50

{"molecule": "O=C(N/N=C/c1ccc([N+](=O)[O-])o1)c1ccc(O)cc1 [NIFUROXAZIDE]", "result": "< 4.25"}
{"molecule": "O=C(N/N=C/c1ccc([N+](=O)[O-])o1)c1ccncc1", "result": "< 4.25"}
{"molecule": "O=C1CN(/N=C/c2ccc([N+](=O)[O-])o2)C(=O)N1", "result": "< 4.25"}
{"molecule": "CN(C)c1ccc(C(=O)N/N=C/c2ccc([N+](=O)[O-])o2)cc1", "result": "< 4.25"}
{"molecule": "COc1ccc(C(=O)N/N=C/c2ccc([N+](=O)[O-])o2)cc1", "result": "< 4.25"}
{"molecule": "O=C(N/N=C/c1ccc([N+](=O)[O-])o1)c1ccc(Cl)s1", "result": "< 4.25"}
{"molecule": "O=C(N/N=C/c1ccc([N+](=O)[O-])o1)c1cccs1", "result": "< 4.25"}
{"molecule": "O=C(N/N=C/c1ccc([N+](=O)[O-])o1)c1ccccc1", "result": "< 4.25"}

---

# measurement target: Co-chaperonin GroES (Escherichia coli, UniProt Q7BGE6)
# Sequence (Q7BGE6 whole entry): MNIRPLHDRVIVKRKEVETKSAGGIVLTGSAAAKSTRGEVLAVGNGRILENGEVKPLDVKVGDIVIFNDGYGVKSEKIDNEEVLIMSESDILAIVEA
# procedure details: Inhibition of Escherichia coli GroEL/ES assessed as inhibition of native malate dehydrogenase treated after denatured malate dehydrogenase completely refold

{"compound": "O=C(N/N=C/c1ccc([N+](=O)[O-])o1)c1ccc(Cl)s1", "measurement target": "Co-chaperonin GroES (Escherichia coli, UniProt Q7BGE6)", "IC50": "> 63 µM"}
{"compound": "COc1ccc(C(=O)N/N=C/c2ccc([N+](=O)[O-])o2)cc1", "measurement target": "Co-chaperonin GroES (Escherichia coli, UniProt Q7BGE6)", "IC50": "> 63 µM"}
{"compound": "O=C(N/N=C/c1ccc([N+](=O)[O-])o1)c1ccc(O)cc1 [NIFUROXAZIDE]", "measurement target": "Co-chaperonin GroES (Escherichia coli, UniProt Q7BGE6)", "IC50": "> 63 µM"}
{"compound": "O=C1CN(/N=C/c2ccc([N+](=O)[O-])o2)C(=O)N1", "measurement target": "Co-chaperonin GroES (Escherichia coli, UniProt Q7BGE6)", "IC50": "> 63 µM"}
{"compound": "O=C(N/N=C/c1ccc([N+](=O)[O-])o1)c1ccccc1", "measurement target": "Co-chaperonin GroES (Escherichia coli, UniProt Q7BGE6)", "IC50": "> 63 µM"}
{"compound": "O=C(N/N=C/c1ccc([N+](=O)[O-])o1)c1cccs1", "measurement target": "Co-chaperonin GroES (Escherichia coli, UniProt Q7BGE6)", "IC50": "> 63 µM"}
{"compound": "O=C(N/N=C/c1ccc([N+](=O)[O-])o1)c1ccncc1", "measurement target": "Co-chaperonin GroES (Escherichia coli, UniProt Q7BGE6)", "IC50": "> 63 µM"}
{"compound": "CN(C)c1ccc(C(=O)N/N=C/c2ccc([N+](=O)[O-])o2)cc1", "measurement target": "Co-chaperonin GroES (Escherichia coli, UniProt Q7BGE6)", "IC50": "> 63 µM"}
